tested on: acetylcholine receptor
experimental protocol: SPR, receptor immobilized, peptide 10 uM
endpoint: Binding affinity (RU)

binder: RCHVR [5mer-763]
Binding affinity (RU): 30
//
binder: KHHEK [5mer-1055]
Binding affinity (RU): 15
//
binder: RKRYTR [6mer-1-144]
Binding affinity (RU): 148
//
binder: REPWRR [6mer-2-809]
Binding affinity (RU): 18
//
binder: RKLYQR [6mer-1-200]
Binding affinity (RU): 142

A = KTSMKR [6mer-2-850]
B = RKLVRK [6mer-1-180]
Query: // task: argmin of Binding affinity (RU) over [ A , B ] In your reply, give the label of the chosen option.
Response: A
